Assay: Maximum absorption wavelength (λmax) after color development, spectrophotometer MCPD3000
Type: physicochemical
Conditions: photochromic laminate by coating method, 40 µm photochromic layer on thiourethane lens, 0.25 mmol compound per 100 g monomers
The label depends only on Maximum absorption wavelength (nm): y if it is at least 500 nm, n if it is smaller.

COc1ccc(C2(c3ccc(OC)cc3)C=Cc3c4c(c5cc(N6CCCCC6)c(OC)cc5c3O2)-c2ccccc2C4(C)C)cc1 [Formula (E), reference compound] : n
CCCOc1ccc(C2(c3ccc(OC)cc3)C=Cc3c4c(c5cc(N(C)c6ccccc6)c(C)cc5c3O2)-c2ccc(C)cc2C4(CCCCOC)CCCCOC)cc1 (stereo not drawn) : y

Kindly review the next molecule as well.
Incoming: Entry CCCC1(CCC)c2ccccc2-c2c1c1c(c3cc(OC)c(N(C)c4ccccc4)cc23)OC(c2ccc(OC)cc2)(c2ccc(N(c3ccccc3)c3ccccc3)cc2)C=C1 (stereo not drawn) : is its Maximum absorption wavelength (nm) no less than 500 nm?
Outgoing: y

Reference source: patent EP4692071A1
